Test system: hospital-acquired methicillin-resistant Staphylococcus aureus HA-MRSA (ATCC 33591)
Assay: Minimum inhibitory concentration (MIC)
Format: cell-based
Details: Table 6
Consider the following compounds; for each one, report its MIC HA-MRSA.
Numbers only, in µM.

`CCCCCCCCCCCC[N+](C)(C)CCCN(CCC[N+](C)(C)CCCCCCCCCCCC)CCC[N+](C)(C)CCCCCCCCCCCC` tested on hospital-acquired methicillin-resistant Staphylococcus aureus HA-MRSA (ATCC 33591) gave MIC HA-MRSA: 1

`C=CC[N+](CCC[N+](C)(C)CCCCCCCCCCCC)(CCC[N+](C)(C)CCCCCCCCCCCC)CCC[N+](C)(C)CCCCCCCCCCCC` tested on hospital-acquired methicillin-resistant Staphylococcus aureus HA-MRSA (ATCC 33591) gave MIC HA-MRSA: 0.5

Proceed to the following item.
`CCCCCCCCCCCCCC[N+](C)(C)CCC[N+](C)(CCC[N+](C)(C)CCCCCCCCCCCCCC)CCC[N+](C)(C)CCCCCCCCCCCCCC` tested on hospital-acquired methicillin-resistant Staphylococcus aureus HA-MRSA (ATCC 33591) gave MIC HA-MRSA: 2

The measurements presented in this section are drawn from patent US20180111893A1.
